tested on: Mus musculus; assay: Neurotoxicity in CF1 mouse at 300 mg/kg, ip after 0.5 hrs by rotarod test; assay type: toxicity, organism-based; design: dose 300 mg/kg, route intraperitoneal; conditions: in vivo
quantity: Activity

Sample records with Activity:
molecule: CCCOc1c(C(=O)N/N=C/c2ccc3c(c2)c2ccccc2n3CC)sc(C(=O)N/N=C/c2ccc3c(c2)c2ccccc2n3CC)c1OCCC
experimental_value: Toxic
//
molecule: CCCOc1c(C(=O)N/N=C\c2ccc3c(c2)Cc2ccccc2-3)sc(C(=O)N/N=C/c2ccc3c(c2)Cc2ccccc2-3)c1OCCC
experimental_value: Toxic
//
molecule: CCCOc1c(C(=O)NN=C2CCCC2)sc(C(=O)NN=C2CCCC2)c1OCCC
experimental_value: Non-toxic
//
molecule: CCCOc1c(C(=O)NN=C(C)C)sc(C(=O)NN=C(C)C)c1OCCC
experimental_value: Toxic

stdin: # lookup: Activity of `CCCOc1c(C(=O)N/N=C(\C)c2ccccc2)sc(C(=O)N/N=C(\C)c2ccccc2)c1OCCC`
stdout: Non-toxic

stdin: Next up: `CCCOc1c(C(=O)N/N=C\c2ccccc2)sc(C(=O)N/N=C/c2ccccc2)c1OCCC`
stdout: Non-toxic

stdin: Consider next the molecule `CCCOc1c(C(=O)N/N=C\c2cc(OC)c(OC)c(OC)c2)sc(C(=O)N/N=C/c2cc(OC)c(OC)c(OC)c2)c1OCCC` in the same way.
stdout: Non-toxic

stdin: And the next one, `CCCOc1c(C(=O)N/N=C(\C)c2c[nH]c3ccccc23)sc(C(=O)N/N=C(\C)c2c[nH]c3ccccc23)c1OCCC` ?
stdout: Non-toxic

stdin: Repeat for the following molecule: `CCCC/C=N/NC(=O)c1sc(C(=O)N/N=C/CCCC)c(OCCC)c1OCCC`
stdout: Toxic

stdin: Would you kindly repeat that for CCCOc1c(C(=O)NN=C2CC(C)Sc3sc(S(N)(=O)=O)cc32)sc(C(=O)NN=C2CC(C)Sc3sc(S(N)(=O)=O)cc32)c1OCCC (stereo not given) ?
stdout: Toxic
